system: SNB-19; test: NCI tumour cell line growth inhibition, 48 h
Active and inactive are the calls of the source. Cut-off read from the data, not from the text of the source: active = GI50 up to about 1.1 µM and inactive = higher. Where a SMILES comes first, the peptide text is derived from it. [ ]: non-standard residue; d: D form. The star is where a group is joined. Bn2Val = CC(C)[C@@H](C(=O)*)N(Cc1ccccc1)Cc1ccccc1; NH(4-F-benzyl) = Fc1ccc(CN*)cc1; NMeV = CN[C@H](C(=O)O)C(C)C; dNMeA = CN[C@H](C)C(=O)O
Classes used: class 1 for active, class 0 for inactive

| Compound | Target under test | Assigned class |
| --- | --- | --- |
| C[N+](C)(C)c1nc(N)nc2c1ncn2C1OC(CO)C(O)C1O (stereo unspecified) | SNB-19 | class 0 |
| OC(c1cccnc1)C(F)(F)c1nc2ccccc2o1 (stereo unspecified) | SNB-19 | class 0 |
| Cc1ccccc1-n1c(CCl)nc2ccc(Br)cc2c1=O | SNB-19 | class 0 |
| COC(CNC(=O)C(C)NC(=O)/C=C/c1ccccc1)OC (stereo unspecified) | SNB-19 | class 0 |
| OC1(c2ccccc2)c2ccccc2N=C2NCCN21 (stereo unspecified) | SNB-19 | class 0 |
| Cc1nn(C)c2nc3ccc(Cl)cc3c(-c3ccccc3)c12 | SNB-19 | class 0 |
| Clc1ccccc1-c1nnc2c(-c3ccccc3)nc3ccccc3n12 | SNB-19 | class 0 |
| Cc1ccc(S(=O)(=O)NN=C2C(C)CC(C(C)(C)C)CC2C)cc1 (stereo unspecified) | SNB-19 | class 0 |
| c1ccc(COc2ncccc2C2SCCCS2)cc1 | SNB-19 | class 0 |
| Nc1ncnc2c1ncn2CC(OCP(=O)(O)O)Oc1ccccc1 (stereo unspecified) | SNB-19 | class 0 |
| C=C(C)[C@@H]1CC[C@@]2(C)[C@H]1[C@H]1CCC3[C@@]4(C)CC[C@H](O)C(C)(C)[C@@H]4CC[C@@]3(C)[C@]1(C)C[C@@H]2O (stereo partly specified) [CALENDULADIOL] | SNB-19 | class 0 |
| O=C1/C(=C\c2ccc([N+](=O)[O-])cc2)CS(=O)(=O)C/C1=C/c1ccc([N+](=O)[O-])cc1 | SNB-19 | class 0 |
| CCOP(=O)(/C=C\n1cnc2c(=O)n(C(C)=O)c(N)nc21)OCC | SNB-19 | class 0 |
| Cn1cnc([N+](=O)[O-])c1SC1=NCCS1 | SNB-19 | class 0 |
| Cc1ccc(NC(=O)C2C(=O)N(c3ccc(C)c(C)c3)C(=O)/C2=N/O)cc1C (stereo unspecified) | SNB-19 | class 0 |
| NC1=NN(c2ccccc2)C2(O)c3ccncc3C3=NN(c4ccccc4)C(=O)C132 (stereo unspecified) | SNB-19 | class 0 |
| O=[N+]([O-])/C(C(Cl)=C(Cl)Cl)=C(\Nc1cccc2cccnc12)Sc1ccccc1 | SNB-19 | class 0 |
| CC(C)[C@H](NC(=O)[C@H](C(C)C)N(Cc1ccccc1)Cc1ccccc1)C(=O)N(C)[C@H](C(=O)N1CCC[C@H]1C(=O)N(C)[C@H](C)C(=O)NCc1ccc(F)cc1)C(C)C (Bn2Val-V[NMeV]P[dNMeA]-{NH(4-F-benzyl)}) | SNB-19 | class 0 |
| Brc1ccccc2cc(-c3ccccc3)nc1-2 | SNB-19 | class 0 |
| Cc1nnc2ccccc2c1O | SNB-19 | class 0 |
| O=C(/C=C/c1ccc(Cl)cc1)c1nc2ccccc2[nH]1 | SNB-19 | class 0 |
| C#CCOCn1ccc(=O)[nH]c1=O | SNB-19 | class 0 |
| COc1ccc(C=O)c(N(C)C(=O)C(C)(C)C)c1 | SNB-19 | class 0 |
| O=C(O)c1ccc(Nc2ccnc3cc(Cl)ccc23)cc1O | SNB-19 | class 0 |
| Cc1cnc2cc(Cl)ccc2c1SCC(=O)O | SNB-19 | class 0 |
| Cc1c(O)c(OC2OC(CO)C(O)C(O)C2O)cc2c1C=C[C@@H]1[C@@]2(C)C(=O)C[C@]2(C)[C@@H]([C@@](C)(O)C(O)/C=C/C(C)(C)O)[C@H](O)C[C@@]12C (stereo partly specified) | SNB-19 | class 0 |
| C[N+](C)=c1nc(N2CCc3ccccc3C2)ss1.[O-][Cl+3]([O-])([O-])[O-] | SNB-19 | class 0 |
| COc1ccc2cc1Oc1ccc(cc1)C[C@H]1c3cc(c(OC)cc3CCN1C)Oc1c(O)c(OC)cc3c1[C@H](C2)N(C)CC3 [FANGCHINOLINE] | SNB-19 | class 0 |
| Cc1cc2c(=O)cc(-c3cccs3)oc2c(C(=O)O)c1C | SNB-19 | class 0 |
| C(=C\c1cc(-c2ccc3ccccc3n2)nc2ccc3ccccc3c12)/c1ccc2ccccc2n1 | SNB-19 | class 0 |
| O=C1C(Cl)=C(N2CCC[C@H]2CO)C(=O)c2c(O)ccc(O)c21 | SNB-19 | class 0 |
| O=C(O)c1cccc(S(=O)(=O)NN2C(=O)CSC2c2ccccc2)c1 (stereo unspecified) | SNB-19 | class 0 |
| CSc1c2c(C)n[nH]c2nn1-c1ccccc1 | SNB-19 | class 0 |
| CCc1nc2ccc(C(F)(F)F)cc2[nH]c1=O | SNB-19 | class 0 |
| CCOP(=O)(OCC)/C(C#N)=C/c1c[nH]c2ccccc12 | SNB-19 | class 0 |
| C1=Nc2sc3c(c2C2=NCCN12)CCCC3 | SNB-19 | class 0 |
| Nc1nn(CC(O)CO)c(=O)s1 (stereo unspecified) | SNB-19 | class 0 |
| C=C(CN(C)C)C(=O)c1ccc(C(=O)C(=C)CN(C)C)cc1 | SNB-19 | class 0 |
| CC1OC(n2cc(Cl)c(=O)[nH]c2=O)C=C(OC(=O)c2ccccc2)C1=O (stereo unspecified) | SNB-19 | class 0 |
| CO[C@H]1C[C@](C)(O)Cc2cc3c(c(O)c21)C(=O)c1c(O)cc2c(c1C3=O)O[C@@H]1O[C@@]2(C)[C@H](O)[C@@H](N(C)C)[C@@H]1O | SNB-19 | class 1 |
| CCN(CC)CCC(=O)c1ccc(Sc2ccc(F)cc2)cc1 | SNB-19 | class 0 |
